- EXPERIMENTAL_SYSTEM: human CYP2C19 (Homo sapiens, UniProt P33261)
- Sequence (P33261 whole entry): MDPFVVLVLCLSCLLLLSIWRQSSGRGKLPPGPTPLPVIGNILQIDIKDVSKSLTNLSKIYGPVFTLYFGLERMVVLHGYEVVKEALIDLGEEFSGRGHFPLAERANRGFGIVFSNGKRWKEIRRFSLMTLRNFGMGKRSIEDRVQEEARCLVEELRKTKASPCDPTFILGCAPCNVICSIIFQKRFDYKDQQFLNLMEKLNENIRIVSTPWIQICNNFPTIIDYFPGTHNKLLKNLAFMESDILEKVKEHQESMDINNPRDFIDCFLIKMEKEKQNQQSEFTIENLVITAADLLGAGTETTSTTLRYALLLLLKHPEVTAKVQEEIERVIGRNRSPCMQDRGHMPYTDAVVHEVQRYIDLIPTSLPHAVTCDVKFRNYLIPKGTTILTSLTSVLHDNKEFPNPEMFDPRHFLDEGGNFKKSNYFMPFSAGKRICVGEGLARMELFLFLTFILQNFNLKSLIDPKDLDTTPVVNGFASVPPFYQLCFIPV
- PROTOCOL: biochemical
MEASURED_ENDPOINT: log10 AC50 (log10 of the value in µM)
On a log10 scale: recorded AC50, unit µM.

Cc1cc(O)c(Cl)c(C)c1Cl [2,4-Dichloro-3,5-dimethylphenol]: 1.86
CC(=O)Oc1ccc2c(c1)CC[C@@H]1[C@@H]2CC[C@]2(C)[C@@H](O)CC[C@@H]12 [Estradiol acetate]: 1.31
COC(=O)c1cc(Cl)ccc1[N+](=O)[O-] [Methyl 5-chloro-2-nitrobenzoate]: 1.90
O=P(c1ccccc1)(c1ccccc1)c1ccccc1 [Triphenylphosphine oxide]: 0.86
O=C1OC2(c3ccccc31)c1ccc(O)c(Br)c1Oc1c2ccc(O)c1Br [4',5'-Dibromofluorescein]: 1.73

Please give measured log10 AC50 of the following entry: CCCCOC(=O)COc1ccc(Cl)cc1Cl [2,4-D 1-butyl ester]
1.48

Please give measured log10 AC50 of the following entry: O=C1c2ccccc2CCc2ccccc21 [Dibenzosuberone]
0.92

Please give measured log10 AC50 of the following entry: CCNc1nc(NC(C)CC)nc(OC)n1 (stereo not shown) [Secbumeton]
1.42

Please give measured log10 AC50 of the following entry: O=c1c2ccccc2oc2ccccc12 [Xanthone]
1.47

Please give measured log10 AC50 of the following entry: O=C1c2ccccc2-c2ccccc21 [9-Fluorenone]
1.64

###

- EXPERIMENTAL_SYSTEM: human CYP2C9 (Homo sapiens, UniProt P11712)
- Sequence (P11712 whole entry): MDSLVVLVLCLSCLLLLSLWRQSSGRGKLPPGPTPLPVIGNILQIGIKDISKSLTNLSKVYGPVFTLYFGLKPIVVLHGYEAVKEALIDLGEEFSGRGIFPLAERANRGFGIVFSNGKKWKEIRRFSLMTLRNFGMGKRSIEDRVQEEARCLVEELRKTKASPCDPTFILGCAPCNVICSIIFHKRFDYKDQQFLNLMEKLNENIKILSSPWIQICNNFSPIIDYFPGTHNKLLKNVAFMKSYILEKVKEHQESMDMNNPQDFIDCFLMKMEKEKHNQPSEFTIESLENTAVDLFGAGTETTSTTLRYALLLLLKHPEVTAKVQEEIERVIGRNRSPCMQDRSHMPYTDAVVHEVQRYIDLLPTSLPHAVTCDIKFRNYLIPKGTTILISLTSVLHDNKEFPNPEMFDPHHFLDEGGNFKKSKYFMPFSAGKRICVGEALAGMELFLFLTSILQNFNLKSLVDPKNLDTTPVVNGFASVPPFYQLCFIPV
- RUN_CONDITIONS: human
A collection of compounds and their measured CYP2C9 Efficacy (in parenthesis)

Some solved entries appear below for comparison.
Clc1ccc(C(c2ccccc2Cl)C(Cl)Cl)cc1 (stereo not shown): 10.57 ± 0.69 (-106 ± 4) %
O=C(Nc1ccc(S(=O)(=O)N2CCOCC2)cc1)c1cc(Cl)ccc1NS(=O)(=O)c1ccc(Cl)s1: 0.05 ± 0.01 (-98 ± 7) %
N#C/C(=C1/SC[C@@H](c2ccc(Cl)cc2Cl)S1)n1ccnc1 [luliconazole, reference compound]: 0.52 ± 0.12 (-109 ± 5) %

Now, please, on to the next compound.
Please give measured CYP2C9 Efficacy (in parenthesis) of the following entry: `O=S(=O)(c1ccc(Cl)cc1)c1cc(Cl)c(Cl)cc1Cl`
28.26 ± 0 (-59 ± 2) %

###

- EXPERIMENTAL_SYSTEM: UniProtKB P10635
- Sequence (P10635 whole entry): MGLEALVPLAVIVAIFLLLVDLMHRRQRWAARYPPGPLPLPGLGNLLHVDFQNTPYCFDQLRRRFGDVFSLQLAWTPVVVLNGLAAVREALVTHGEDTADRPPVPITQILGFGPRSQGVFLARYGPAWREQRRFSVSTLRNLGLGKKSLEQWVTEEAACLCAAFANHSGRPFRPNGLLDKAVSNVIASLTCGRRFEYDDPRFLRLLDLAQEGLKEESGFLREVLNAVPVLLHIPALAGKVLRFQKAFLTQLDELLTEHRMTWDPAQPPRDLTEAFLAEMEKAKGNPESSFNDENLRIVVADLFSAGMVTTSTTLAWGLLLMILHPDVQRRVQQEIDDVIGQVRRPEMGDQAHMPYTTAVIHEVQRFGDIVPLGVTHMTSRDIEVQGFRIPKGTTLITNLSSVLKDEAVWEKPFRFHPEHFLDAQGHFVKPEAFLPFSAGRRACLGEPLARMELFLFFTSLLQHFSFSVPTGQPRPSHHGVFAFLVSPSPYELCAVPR
- PROTOCOL: biochemical
- RUN_CONDITIONS: CYP2D6 IC50, mean ± standard deviation from three experiments
MEASURED_ENDPOINT: IC50 (nM)
Report the value in nM with no unit label.

Please give measured IC50 of the following entry: O=C(CCCN1CCC2(CC1)C(=O)NCN2c1ccccc1)c1ccc(F)cc1 [Spiperone]
790

###

- EXPERIMENTAL_SYSTEM: Photinus pyralis (firefly) luciferase (Photinus pyralis, UniProt P08659)
- Sequence (P08659 whole entry): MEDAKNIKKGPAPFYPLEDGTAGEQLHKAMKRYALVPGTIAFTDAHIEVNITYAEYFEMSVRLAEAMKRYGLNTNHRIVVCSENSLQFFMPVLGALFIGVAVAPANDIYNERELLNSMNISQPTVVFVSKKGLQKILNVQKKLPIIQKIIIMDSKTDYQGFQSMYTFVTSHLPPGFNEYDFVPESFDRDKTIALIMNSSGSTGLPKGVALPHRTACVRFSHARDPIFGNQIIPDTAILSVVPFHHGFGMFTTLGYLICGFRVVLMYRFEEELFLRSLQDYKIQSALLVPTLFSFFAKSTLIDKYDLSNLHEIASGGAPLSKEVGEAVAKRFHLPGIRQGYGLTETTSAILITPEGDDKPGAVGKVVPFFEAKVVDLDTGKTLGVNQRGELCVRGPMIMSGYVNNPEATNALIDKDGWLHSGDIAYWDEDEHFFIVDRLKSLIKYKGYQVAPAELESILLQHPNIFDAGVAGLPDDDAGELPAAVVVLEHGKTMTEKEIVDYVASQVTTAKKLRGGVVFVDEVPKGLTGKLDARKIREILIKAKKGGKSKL
- PROTOCOL: biochemical
- Format: biochemical
- RUN_CONDITIONS: read-out: Luciferase IC50 (half-maximal inhibitory concentration)
A collection of compounds and their measured pIC50
API: returns pIC50 as number; meaning -log10 of concentration in mol/L.

O=S(=O)(Oc1ccc(Cl)cc1)c1ccccc1 [Fenson]: 4.11

Now, please, on to the next compound.
Please give measured pIC50 of the following entry: COc1cc2c(cc1N)oc1ccccc12 [2-Methoxy-3-aminodibenzofuran]
4.26
